Cited source: ChEMBL document CHEMBL4392833

test system: PANC-1; assay: Growth inhibition of human PANC1 cells by MTT assay; assay type: cell-based; details: panc-1
Attribute: GI90
Write the number in mg/L without appending the unit.

Form: compound = CC(=O)O[C@H]1C(=O)[C@@]2(C)[C@H]([C@H](OC(=O)c3ccccc3)[C@]3(O)C[C@H](OC(=O)[C@H](O)[C@@H](NC(=O)c4ccccc4)c4ccccc4)C(C)=C1C3(C)C)[C@]1(OC(C)=O)CO[C@@H]1C[C@@H]2O [PACLITAXEL] ; GI90 = 5.715

Form: compound = "Cc1ccc(O)c(C(=O)/C=C/c2cn(-c3ccc(F)cc3)nc2-c2sc(C)nc2C)c1" ; GI90 = 114.87

Form: compound = Cc1nc(C)c(-c2nn(-c3ccc(F)cc3)cc2C2CC(c3c(O)cc(C)c(Cl)c3C)=NN2)s1 (stereo not given) ; GI90 = 77.64

Form: compound = Cc1nc(C)c(-c2nn(-c3ccc(F)cc3)cc2C2CC(c3cc(Br)ccc3O)=NN2)s1 (stereo not given) ; GI90 = 115.65

Form: compound = "Cc1nc(C)c(-c2nn(-c3ccc(F)cc3)cc2/C=C/C(=O)c2c(O)cc(C)c(Cl)c2C)s1" ; GI90 = 97.41

====

Attribute: Activity
system: THP-1; test: Cytotoxicity against human THP1 cells at 10 ug/ml; assay type: cell-based
Write the number in % without appending the unit.

Form: molecule = Cc1ccc(O)c(C2=NNC(c3cn(-c4ccc(F)cc4)nc3-c3sc(C)nc3C)C2)c1 (centres undefined) ; Activity = 10.7

Form: molecule = "Cc1nc(C)c(-c2nn(-c3ccc(F)cc3)cc2-c2cc(=O)c3cc(Cl)c(C)cc3o2)s1" ; Activity = 16.62

Form: molecule = "Cc1nc(C)c(-c2nn(-c3ccc(F)cc3)cc2/C=C/C(=O)c2cc(Br)ccc2O)s1" ; Activity = 21.42

Form: molecule = Cc1nc(C)c(-c2nn(-c3ccc(F)cc3)cc2C2CC(c3cc(Br)ccc3O)=NN2)s1 (centres undefined) ; Activity = 14.69

Form: molecule = "Cc1ccc2oc(-c3cn(-c4ccc(F)cc4)nc3-c3sc(C)nc3C)cc(=O)c2c1" ; Activity = 2.34

Further cases:
Form: molecule = Cc1nc(C)c(-c2nn(-c3ccc(F)cc3)cc2C2CC(c3cc(Cl)ccc3O)=NN2)s1 (centres undefined) ; Activity = 11.51

Form: molecule = "Cc1nc(C)c(-c2nn(-c3ccc(F)cc3)cc2/C=C/C(=O)c2cc(Cl)c(C)cc2O)s1" ; Activity = 13.26

Form: molecule = "Cc1ccc(O)c(C(=O)/C=C/c2cn(-c3ccc(F)cc3)nc2-c2sc(C)nc2C)c1" ; Activity = 15.3

Form: molecule = "Cc1nc(C)c(-c2nn(-c3ccc(F)cc3)cc2/C=C/C(=O)c2cc(Cl)cc(Cl)c2O)s1" ; Activity = 17.69

====

test system: THP-1; assay: Cytotoxicity against human THP1 cells at 3 ug/ml; assay type: cell-based
Attribute: Activity
Write the number in % without appending the unit.

Form: molecule = "Cc1nc(C)c(-c2nn(-c3ccc(F)cc3)cc2/C=C/C(=O)c2cc(Cl)cc(Cl)c2O)s1" ; Activity = 15.71

Form: molecule = "Cc1ccc(O)c(C(=O)/C=C/c2cn(-c3ccc(F)cc3)nc2-c2sc(C)nc2C)c1" ; Activity = 14.14

Form: molecule = "Cc1nc(C)c(-c2nn(-c3ccc(F)cc3)cc2/C=C/C(=O)c2c(O)cc(C)c(Cl)c2C)s1" ; Activity = 13.12

Further cases:
Form: molecule = "Cc1nc(C)c(-c2nn(-c3ccc(F)cc3)cc2/C=C/C(=O)c2cc(Cl)c(C)cc2O)s1" ; Activity = 10.73

Form: molecule = "Cc1nc(C)c(-c2nn(-c3ccc(F)cc3)cc2/C=C/C(=O)c2cc(Cl)ccc2O)s1" ; Activity = 16.49
